Reference source: patent US20260130395A1

# test.description: Stability of cannabinoid entourage and Vitamin E components of the powder concentrate by LCMSMS
# Assay type: physicochemical
# test.parameters: powder stored at 21-25° C.; 22 days
// assign yes if Stability of Plant-Derived Cannabinoid Compounds in Powder Concentrate falls strictly below 0.5 mg/g powder, else no (ties count as no)

Answered examples (4):
CCCCCc1cc2c(c(O)c1C(=O)O)[C@@H]1C=C(C)CC[C@H]1C(C)(C)O2 [D9 THCA, delta-9-tetrahydrocannabinolic acid] | yes
CCCCCc1cc(O)c2c(c1)OC(C)(C)[C@@H]1CCC(C)=C[C@@H]21 [D9 THC, delta-9-tetrahydrocannabinol, reference compound] | no
C=C(C)[C@@H]1CCC(C)=C[C@H]1c1c(O)cc(CCC)cc1O | yes
C=C(C)[C@@H]1CCC(C)=C[C@H]1c1c(O)cc(CCCCC)c(C(=O)O)c1O | yes

Now examine the next entry.
[ask] Quick check: Stability of Plant-Derived Cannabinoid Compounds in Powder Concentrate of `CCCCCc1cc(O)c(C/C=C(\C)CCC=C(C)C)c(O)c1` under 0.5 mg/g powder?
[reply] no

====

# test.description: Stability of cannabinoid compounds and Vitamin E components in Beverage 2 (AB Red) by LCMSMS
# Assay type: physicochemical
# test.parameters: stored at 8° C., 22 days
test.readout: Stability of Plant-Derived Cannabinoid Compounds in AB Red

Sample records with Stability of Plant-Derived Cannabinoid Compounds in AB Red:
C=C(C)[C@@H]1CCC(C)=C[C@H]1c1c(O)cc(CCCCC)c(C(=O)O)c1O | 1.70 µg/mL
CCCCCc1cc(O)c2c(c1)OC1(C)CCC3C1C2C3(C)C (centres unmarked) | 0.495 µg/mL
CCCCCc1cc(O)c2c(c1)OC(C)(C)c1ccc(C)cc1-2 | 2.73 µg/mL
CCCCCc1cc2c(c(O)c1C(=O)O)[C@@H]1C=C(C)CC[C@H]1C(C)(C)O2 [D9 THCA, delta-9-tetrahydrocannabinolic acid] | 1.34 µg/mL

Consider now this further molecule.
[ask] Field request: Stability of Plant-Derived Cannabinoid Compounds in AB Red | item: CCCCCc1cc(O)c2c(c1)OC(C)(C)[C@@H]1CCC(C)=C[C@@H]21 [D9 THC, delta-9-tetrahydrocannabinol, reference compound]
[reply] 12.7 µg/mL

====

# test.description: Stability of cannabinoid compounds and Vitamin E components in Beverage 2 (AB Red) by LCMSMS
# Type: physicochemical
# test.parameters: stored at 8° C., 420 days
test.readout: Stability of Plant-Derived Cannabinoid Compounds in AB Red (µg/mL)
Express it in µg/mL; write the number only.

[ask] Field request: Stability of Plant-Derived Cannabinoid Compounds in AB Red | item: C=C(C)[C@@H]1CCC(C)=C[C@H]1c1c(O)cc(CCCCC)c(C(=O)O)c1O [CBDA, cannabidiolic acid]
[reply] 1.63

[ask] Field request: Stability of Plant-Derived Cannabinoid Compounds in AB Red | item: CCCCCc1cc(O)c2c(c1)OC1(C)CCC3C1C2C3(C)C (stereo not drawn) [CBL, cannabicyclol]
[reply] 0.494

[ask] Field request: Stability of Plant-Derived Cannabinoid Compounds in AB Red | item: CCCCCc1cc(O)c2c(c1)OC(C)(CCC=C(C)C)C=C2 (stereo not drawn) [CBC, cannabichromene]
[reply] 0.277

[ask] Field request: Stability of Plant-Derived Cannabinoid Compounds in AB Red | item: CCCCCc1cc2c(c(O)c1C(=O)O)[C@@H]1C=C(C)CC[C@H]1C(C)(C)O2 [D9 THCA, delta-9-tetrahydrocannabinolic acid]
[reply] 1.29

[ask] Field request: Stability of Plant-Derived Cannabinoid Compounds in AB Red | item: C=C(C)[C@@H]1CCC(C)=C[C@H]1c1c(O)cc(CCC)cc1O [CBDV, cannabidivarin]
[reply] 0.193

[ask] Field request: Stability of Plant-Derived Cannabinoid Compounds in AB Red | item: CCCCCc1cc(O)c(C/C=C(\C)CCC=C(C)C)c(O)c1 [CBG, cannabigerol]
[reply] 4.58

[ask] Field request: Stability of Plant-Derived Cannabinoid Compounds in AB Red | item: CCCCCc1cc(O)c2c(c1)OC(C)(C)[C@@H]1CCC(C)=C[C@@H]21 [D9 THC, delta-9-tetrahydrocannabinol, reference compound]
[reply] 12.4

[ask] Field request: Stability of Plant-Derived Cannabinoid Compounds in AB Red | item: CCCc1cc(O)c2c(c1)OC(C)(C)[C@@H]1CCC(C)=C[C@@H]21 [THCV, delta-9-tetrahydrocannabivarin]
[reply] 3.13

[ask] Field request: Stability of Plant-Derived Cannabinoid Compounds in AB Red | item: CCCCCc1cc(O)c2c(c1)OC(C)(C)c1ccc(C)cc1-2 [CBN, cannabinol]
[reply] 2.69

====

# test.description: Stability of cannabinoid compounds and Vitamin E components in Beverage 2 (AB Red) by LCMSMS
# Type: physicochemical
# test.parameters: stored at 8° C., 180 days
Documented Stability of Plant-Derived Cannabinoid Compounds in AB Red across a set of molecules
Express it in µg/mL; write the number only.

CCCCCc1cc2c(c(O)c1C(=O)O)[C@@H]1C=C(C)CC[C@H]1C(C)(C)O2 [D9 THCA, delta-9-tetrahydrocannabinolic acid] | 1.30
CCCCCc1cc(O)c(C/C=C(\C)CCC=C(C)C)c(O)c1 | 4.65
CCCCCc1cc(O)c2c(c1)OC1(C)CCC3C1C2C3(C)C (stereo not drawn) | 0.506
C=C(C)[C@@H]1CCC(C)=C[C@H]1c1c(O)cc(CCCCC)c(C(=O)O)c1O | 1.60
CCCc1cc(O)c2c(c1)OC(C)(C)[C@@H]1CCC(C)=C[C@@H]21 [THCV, delta-9-tetrahydrocannabivarin] | 3.10
C=C(C)[C@@H]1CCC(C)=C[C@H]1c1c(O)cc(CCC)cc1O | 0.192
CCCCCc1cc(O)c2c(c1)OC(C)(C)c1ccc(C)cc1-2 | 2.74
CCCCCc1cc(O)c2c(c1)OC(C)(C)[C@@H]1CCC(C)=C[C@@H]21 [D9 THC, delta-9-tetrahydrocannabinol, reference compound] | 12.6

Consider now this further molecule.
[ask] Field request: Stability of Plant-Derived Cannabinoid Compounds in AB Red | item: CCCCCc1cc(O)c2c(c1)OC(C)(CCC=C(C)C)C=C2 (stereo not drawn)
[reply] 0.285

====

# test.description: Stability of cannabinoid entourage and Vitamin E components of the powder concentrate by LCMSMS
# Type: physicochemical
# test.parameters: powder stored at 21-25° C.; 390 days
# Procedure: At each time period, 0.05 g of powder was dissolved in 10 ml-15 of ethanol, diluted to fall within the analytical range, and injected into the LCMSMS for analysis.
Documented Stability of Plant-Derived Cannabinoid Compounds in Powder Concentrate across a set of molecules
Express it in mg/g powder; write the number only.

CCCCCc1cc(O)c2c(c1)OC(C)(CCC=C(C)C)C=C2 (stereo not shown) | 0.068
CCCCCc1cc(O)c2c(c1)OC(C)(C)c1ccc(C)cc1-2 | 0.479
CCCCCc1cc(O)c(C/C=C(\C)CCC=C(C)C)c(O)c1 | 1.14

[ask] Field request: Stability of Plant-Derived Cannabinoid Compounds in Powder Concentrate | item: `C=C(C)[C@@H]1CCC(C)=C[C@H]1c1c(O)cc(CCC)cc1O`
[reply] 0.049

[ask] Field request: Stability of Plant-Derived Cannabinoid Compounds in Powder Concentrate | item: CCCCCc1cc2c(c(O)c1C(=O)O)[C@@H]1C=C(C)CC[C@H]1C(C)(C)O2 [D9 THCA, delta-9-tetrahydrocannabinolic acid]
[reply] 0.153

====

# test.description: Stability of cannabinoid compounds and Vitamin E components in Beverage 2 (AB Red) by LCMSMS
# Type: physicochemical
# test.parameters: stored at 8° C., 19 days
Please note: 1 applies when Stability of Plant-Derived Cannabinoid Compounds in AB Red is 3 µg/mL or greater, and -1 applies otherwise.

CCCCCc1cc(O)c2c(c1)OC1(C)CCC3C1C2C3(C)C (stereo not drawn) | -1
CCCCCc1cc2c(c(O)c1C(=O)O)[C@@H]1C=C(C)CC[C@H]1C(C)(C)O2 [D9 THCA, delta-9-tetrahydrocannabinolic acid] | -1
CCCCCc1cc(O)c2c(c1)OC(C)(CCC=C(C)C)C=C2 (stereo not drawn) | -1
CCCCCc1cc(O)c(C/C=C(\C)CCC=C(C)C)c(O)c1 | 1
C=C(C)[C@@H]1CCC(C)=C[C@H]1c1c(O)cc(CCC)cc1O | -1
CCCc1cc(O)c2c(c1)OC(C)(C)[C@@H]1CCC(C)=C[C@@H]21 [THCV, delta-9-tetrahydrocannabivarin] | 1
CCCCCc1cc(O)c2c(c1)OC(C)(C)[C@@H]1CCC(C)=C[C@@H]21 [D9 THC, delta-9-tetrahydrocannabinol, reference compound] | 1
C=C(C)[C@@H]1CCC(C)=C[C@H]1c1c(O)cc(CCCCC)c(C(=O)O)c1O | -1

Now examine the next entry.
[ask] Would you say `CCCCCc1cc(O)c2c(c1)OC(C)(C)c1ccc(C)cc1-2` shows Stability of Plant-Derived Cannabinoid Compounds in AB Red at minimum 3 µg/mL?
[reply] -1
